All values here come from patent US8044035B2.

assay details: Phase solubility studies of Compound I with cyclodextrins (excess compound, 7 days, 37° C., HPLC)
Assay type: physicochemical
applied conditions: cyclodextrin solution, 37 °C, aqueous with cosolvent or surfactant or cyclodextrin, thermodynamic from solid, γCD 100 mM; 37° C., 7 days; read-out: Concentration of Compound I (solubility)
measured property: solubility at 7 days (µg/mL)
Give bare numbers, in µg/mL.

Problem: I would be grateful if you could share the reported solubility at 7 days for O=C1NC(=O)C(c2ccc(-c3ccccc3)cc2)(N2CCN(c3ccc([N+](=O)[O-])cc3)CC2)C(=O)N1 [Compound I] .
Result: 19.5

###

assay details: Phase solubility studies of Compound I with cyclodextrins (excess compound, 7 days, 37° C., HPLC)
Format: physicochemical
applied conditions: cyclodextrin solution, 37 °C, aqueous with cosolvent or surfactant or cyclodextrin, thermodynamic from solid, in the presence of HPβCD, CD 4 mM; 37° C., 7 days; read-out: Concentration of Compound I (solubility)
measured property: solubility at 7 days

Problem: Find the recorded solubility at 7 days belonging to O=C1NC(=O)C(c2ccc(-c3ccccc3)cc2)(N2CCN(c3ccc([N+](=O)[O-])cc3)CC2)C(=O)N1 and report it.
Result: 6.8 µg/mL

###

assay details: Phase solubility studies of Compound I with cyclodextrins (excess compound, 7 days, 37° C., HPLC)
Type: physicochemical
applied conditions: cyclodextrin solution, 37 °C, aqueous with cosolvent or surfactant or cyclodextrin, thermodynamic from solid, HPβCD 100 mM; 37° C., 7 days; read-out: Concentration of Compound I (solubility)
measured property: solubility at 7 days (µg/mL)
Numbers only, in µg/mL.

Problem: Name the recorded solubility at 7 days for O=C1NC(=O)C(c2ccc(-c3ccccc3)cc2)(N2CCN(c3ccc([N+](=O)[O-])cc3)CC2)C(=O)N1 .
Result: 1660

###

assay details: Phase solubility studies of Compound I with cyclodextrins (excess compound, 7 days, 37° C., HPLC)
Format: physicochemical
applied conditions: cyclodextrin solution, 37 °C, aqueous with cosolvent or surfactant or cyclodextrin, thermodynamic from solid, HPβCD 50 mM; 37° C., 7 days; read-out: Concentration of Compound I (solubility)
measured property: solubility at 7 days (µg/mL)
Numbers only, in µg/mL.

Problem: Quick check: solubility at 7 days of O=C1NC(=O)C(c2ccc(-c3ccccc3)cc2)(N2CCN(c3ccc([N+](=O)[O-])cc3)CC2)C(=O)N1 ?
Result: 236

###

assay details: Phase solubility studies of Compound I with cyclodextrins (excess compound, 7 days, 37° C., HPLC)
Format: physicochemical
applied conditions: cyclodextrin solution, 37 °C, aqueous with cosolvent or surfactant or cyclodextrin, thermodynamic from solid, HPβCD 25 mM; 37° C., 7 days; read-out: Concentration of Compound I (solubility)
measured property: solubility at 7 days (µg/mL)
Numbers only, in µg/mL.

Problem: Which solubility at 7 days value is on record for O=C1NC(=O)C(c2ccc(-c3ccccc3)cc2)(N2CCN(c3ccc([N+](=O)[O-])cc3)CC2)C(=O)N1 ?
Result: 213

###

assay details: Phase solubility studies of Compound I with cyclodextrins (excess compound, 7 days, 37° C., HPLC)
Format: physicochemical
applied conditions: cyclodextrin solution, 37 °C, aqueous with cosolvent or surfactant or cyclodextrin, thermodynamic from solid, HPβCD 200 mM; 37° C., 7 days; read-out: Concentration of Compound I (solubility)
measured property: solubility at 7 days (µg/mL)
Numbers only, in µg/mL.

Problem: Given the entry O=C1NC(=O)C(c2ccc(-c3ccccc3)cc2)(N2CCN(c3ccc([N+](=O)[O-])cc3)CC2)C(=O)N1 [Compound I] , report its measured solubility at 7 days.
Result: 4960

###

assay details: Phase solubility studies of Compound I with cyclodextrins (excess compound, 7 days, 37° C., HPLC)
Type: physicochemical
applied conditions: cyclodextrin solution, 37 °C, aqueous with cosolvent or surfactant or cyclodextrin, thermodynamic from solid, γCD 200 mM; 37° C., 7 days; read-out: Concentration of Compound I (solubility)
measured property: solubility at 7 days (µg/mL)
One number for each entry, in µg/mL.

Problem: # query: solubility at 7 days of entry O=C1NC(=O)C(c2ccc(-c3ccccc3)cc2)(N2CCN(c3ccc([N+](=O)[O-])cc3)CC2)C(=O)N1 [Compound I]
Result: 29.1

###

assay details: Phase solubility studies of Compound I with cyclodextrins (excess compound, 7 days, 37° C., HPLC)
Format: physicochemical
applied conditions: βCD solution, 37 °C, aqueous with cosolvent or surfactant or cyclodextrin, thermodynamic from solid, βCD, maximum concentration used 4 mM; read-out: Maximum solubility
measured property: solubility at 7 days

Problem: Could you share which solubility at 7 days value was measured for O=C1NC(=O)C(c2ccc(-c3ccccc3)cc2)(N2CCN(c3ccc([N+](=O)[O-])cc3)CC2)C(=O)N1 [Compound I] ?
Result: 6.8 µg/mL

###

assay details: Phase solubility studies of Compound I with cyclodextrins (excess compound, 7 days, 37° C., HPLC)
Assay type: physicochemical
applied conditions: cyclodextrin solution, 37 °C, aqueous with cosolvent or surfactant or cyclodextrin, thermodynamic from solid, HPβCD 75 mM; 37° C., 7 days; read-out: Concentration of Compound I (solubility)
measured property: solubility at 7 days (µg/mL)
Give bare numbers, in µg/mL.

Problem: May I ask what solubility at 7 days has been recorded for O=C1NC(=O)C(c2ccc(-c3ccccc3)cc2)(N2CCN(c3ccc([N+](=O)[O-])cc3)CC2)C(=O)N1 [Compound I] ?
Result: 1130

###

assay details: Phase solubility studies of Compound I with cyclodextrins (excess compound, 7 days, 37° C., HPLC)
Assay type: physicochemical
applied conditions: cyclodextrin solution, 37 °C, aqueous with cosolvent or surfactant or cyclodextrin, thermodynamic from solid, RMβCD 50 mM; 37° C., 7 days; read-out: Concentration of Compound I (solubility)
measured property: solubility at 7 days (µg/mL)
One number for each entry, in µg/mL.

Problem: So what does the record say about solubility at 7 days for O=C1NC(=O)C(c2ccc(-c3ccccc3)cc2)(N2CCN(c3ccc([N+](=O)[O-])cc3)CC2)C(=O)N1 [Compound I] ?
Result: 1530

###

assay details: Phase solubility studies of Compound I with cyclodextrins (excess compound, 7 days, 37° C., HPLC)
Format: physicochemical
applied conditions: cyclodextrin solution, 37 °C, aqueous with cosolvent or surfactant or cyclodextrin, thermodynamic from solid, RMβCD 75 mM; 37° C., 7 days; read-out: Concentration of Compound I (solubility)
measured property: solubility at 7 days (µg/mL)
Give bare numbers, in µg/mL.

Problem: Suppose we examine the molecule O=C1NC(=O)C(c2ccc(-c3ccccc3)cc2)(N2CCN(c3ccc([N+](=O)[O-])cc3)CC2)C(=O)N1 ; what solubility at 7 days value has been reported?
Result: 3010

###

assay details: Solubility of various trioxopyrimidines in the presence of HPβCD
Type: physicochemical
applied conditions: HPβCD solution, 37 °C, aqueous with cosolvent or surfactant or cyclodextrin, thermodynamic from solid, HPβCD 100 mM; read-out: Concentration (solubility)
measured property: solubility (µg/mL)
Give bare numbers, in µg/mL.

Observe how each entry below is paired with its result.
{"compound": "O=C1NC(=O)C(c2ccc(Oc3ccccc3)cc2)(N2CCN(c3ncccn3)CC2)C(=O)N1", "measured property": "solubility", "observed": 5900}
{"compound": "O=C1NC(=O)C(c2ccc(Oc3ccc(Cl)cc3)cc2)(N2CCN(c3ncccn3)CC2)C(=O)N1", "measured property": "solubility", "observed": 6100}
{"compound": "O=C1NC(=O)C(c2ccc(Oc3ccc(Cl)c(Cl)c3)cc2)(N2CCN(c3ncccn3)CC2)C(=O)N1", "measured property": "solubility", "observed": 2700}

Now take the following molecule into account.
Problem: Fill in: solubility of O=C1NC(=O)C(c2ccc(Oc3ccc(Br)cc3)cc2)(N2CCN(c3ncccn3)CC2)C(=O)N1 is ___
Result: 6600

###

What solubility was measured for each of the following?
assay details: Solubility of various trioxopyrimidines in the presence of HPβCD
Type: physicochemical
applied conditions: HPβCD solution, 37 °C, aqueous with cosolvent or surfactant or cyclodextrin, thermodynamic from solid, HPβCD 50 mM; read-out: Concentration (solubility)
One number for each entry, in µg/mL.

Examples from the recorded data:
{"compound": "O=C1NC(=O)C(c2ccc(Oc3ccc(Cl)c(Cl)c3)cc2)(N2CCN(c3ncccn3)CC2)C(=O)N1 [Compound IV]", "solubility, µg/mL": 900}
{"compound": "O=C1NC(=O)C(c2ccc(Oc3ccc(Br)cc3)cc2)(N2CCN(c3ncccn3)CC2)C(=O)N1 [Compound V]", "solubility, µg/mL": 5400}
{"compound": "O=C1NC(=O)C(c2ccc(Oc3ccccc3)cc2)(N2CCN(c3ncccn3)CC2)C(=O)N1 [Compound II]", "solubility, µg/mL": 3800}

Problem: # lookup: solubility of O=C1NC(=O)C(c2ccc(Oc3ccc(Cl)cc3)cc2)(N2CCN(c3ncccn3)CC2)C(=O)N1 [Compound III]
Result: 3100

###

assay details: Solubility of various trioxopyrimidines in the presence of HPβCD
Type: physicochemical
applied conditions: HPβCD solution, 37 °C, aqueous with cosolvent or surfactant or cyclodextrin, thermodynamic from solid, HPβCD 25 mM; read-out: Concentration (solubility)
Protocol: 1.1 Weigh 20 mg of compound I. Add 2 ml of solution of HPβCD 200 mM. Stir for 24 h at 37° C. Filter in Millipore filter Millex HV 0.45 μm. The solution obtained after filtration contains the complex compound I-CD in solution. 1.2. Weigh 2.5 mg of compound I. Add 2 ml of solution of HPβCD 200 mM. Stir at 37° C. for 24 h or until compound I is completely dissolved. The solution obtained in this way contains the complex compound I-CD. […]
measured property: solubility (µg/mL)
Numbers only, in µg/mL.

The following compounds have reported results that may help.
{"compound": "O=C1NC(=O)C(c2ccc(Oc3ccc(Cl)cc3)cc2)(N2CCN(c3ncccn3)CC2)C(=O)N1 [Compound III]", "unit spec": "µg/mL", "observed": 2400}
{"compound": "O=C1NC(=O)C(c2ccc(Oc3ccccc3)cc2)(N2CCN(c3ncccn3)CC2)C(=O)N1 [Compound II]", "unit spec": "µg/mL", "observed": 3400}
{"compound": "O=C1NC(=O)C(c2ccc(Oc3ccc(Cl)c(Cl)c3)cc2)(N2CCN(c3ncccn3)CC2)C(=O)N1 [Compound IV]", "unit spec": "µg/mL", "observed": 200}

Turning now to a further compound:
Problem: Dear colleague, I am looking for the recorded solubility of the following compound: O=C1NC(=O)C(c2ccc(Oc3ccc(Br)cc3)cc2)(N2CCN(c3ncccn3)CC2)C(=O)N1 [Compound V]
Result: 2400
